growth inhibition: recorded values
# procedureText: NCI Yeast Anticancer Drug Screen. Data for the mec2-1 strain (AID 157)
# assaySetup: S. cerevisiae mec2-1 strain, at 50.0 µM, hits give high values
Compounds without any hit were thinned out: in the full panel of roughly 79,000, 15% have a hit.
Write it as a number; the unit % goes unstated.

Some compounds with known growth inhibition results, for comparison:
CCOC(=O)NC(=O)c1cn(CCCOC(=O)CCCCCCCCC(=O)OCCCn2cc(C(=O)NC(=O)OCC)c(=O)n(C)c2=O)c(=O)n(C)c1=O :: -25.1
COC(=O)c1nc(N)nc(C(=O)OC)c1C(=O)C(C)(C)C :: -10.8

Give growth inhibition for Clc1ccc2ccccc2n1 -1.65

----------
# procedureText: NCI Yeast Anticancer Drug Screen. Data for the sgs1 mgt1 strain (AID 161);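 further: 0% = growth of cultures given vehicle only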
# assaySetup: S. cerevisiae sgs1 mgt1 strain, at 50.0 µM, hits give high values
# Experimental: Growth inhibition of yeast strains with defined genetic alterations is measured as a screen for potential anti-cancer activity. Selected strains with alterations in DNA damage repair or cell cycle control were exposed to compounds and growth inhibition was measured relative to vehicle treated controls. The strain used in this assay is sgs1 mgt1
Compounds without any hit were thinned out: in the full panel of roughly 79,000, 15% have a hit. Active and inactive are the calls of the source. No stated cut-off is given here; in the data, active means growth inhibition above about 70%; inactive means the rest. *1 amine or outer side, *2 acyl side, *3 side chain or, on linkers, in order; H or OH if unused. Where a SMILES comes first, the peptide text is derived from it. Bridges are numbered along the chain shown (N, C = ends). Roman numbers before positions name the chains, in order. [ ]: non-standard residue; d: D form. Actinocin(9to1) = Cc1c2oc3c(C)ccc(C(=O)[*:1])c3nc-2c(C(=O)[*:2])c(N)c1=O; NMeT = CN[CH](C(=O)O)[CH](C)O; Sar = CNCC(=O)O
growth inhibition: recorded values

Some compounds with known growth inhibition results, for comparison:
CC(=N\N=C(c1ccccc1)c1ccccc1)/C(C)=N/N=C(c1ccccc1)c1ccccc1 :: -13.8% (inactive)
CC(O)COc1ccc(Cl)cc1Cl (centres undefined) :: 45.6% (inactive)
COc1ccc(C2=NC(=O)OC2(C)C)cc1 :: -5.7% (inactive)
CCC1(C(=O)O)NC(=O)NC1=O (centres undefined) :: -12.3% (inactive)
C=CCCCCCCCCC(=O)OC1CCCCC1 :: 11.1% (inactive)
OCCOCn1nc(-c2ccccc2)nc1-c1cnccn1 :: -20.3% (inactive)
CCCC(=O)Oc1ccc(C)cc1C(C)(C)C :: -4.95% (inactive)
COc1ccc(Cc2ccc(Cl)cc2)c(OC)c1 :: 19.8% (inactive)
Cc1ccc(C(=O)c2sc(Nc3cccc(C(F)(F)F)c3)c(C#N)c2N)c(C)c1 :: 5.9% (inactive)
CC(C)(C)OC(=O)N(CCCCNC(=O)c1ccccc1)CCCNC(=O)c1ccccc1 :: -30% (inactive)

Give growth inhibition for Nc1c(S(=O)(=O)O)cc(Nc2cccc(S(N)(=O)=O)c2)c2c1C(=O)c1ccccc1C2=O -42.4% (inactive)

Give growth inhibition for Cc1c2oc3c(C)ccc(C(=O)NC4C(=O)NC(C(C)C)C(=O)N5CCCC5C(=O)N(C)CC(=O)N(C)C(C(C)O)C(=O)OC4C)c3nc-2c(C(=O)NC2C(=O)NC(C(C)C)C(=O)N3CCCC3C(=O)N(C)CC(=O)N(C)C(C(C)O)C(=O)OC2C)c(N)c1=O (centres undefined) (I: TVP[Sar][NMeT] / II: TVP[Sar][NMeT]; ester I:1-I:C, II:1-II:C; linker I:N-II:N via Actinocin(9to1); configuration not given here) -3.3% (inactive)

Give growth inhibition for O=C(OCC(O)C(O)C(O)C(O)COC(=O)c1ccccc1)c1ccccc1 (centres undefined) (tested in a mixture with another compound) -0.75% (inactive)

Give growth inhibition for CC(=O)OC1=C(C)C2=C3OC(=O)C(C)=C3CC[C@@]2(C)CC1 6.85% (inactive)

Give growth inhibition for COc1nc(NC2OCC(O)C(O)C2O)c(Br)c(=O)n1C (centres undefined) 14.2% (inactive)

Give growth inhibition for CCCCOB(OCCCC)Oc1c(C(C)(C)C)cccc1C(C)(C)C -4.7% (inactive)

Give growth inhibition for COc1cc(C(=O)O)cc(O)c1OC -2.85% (inactive)

Give growth inhibition for Cc1nc(N)nc(N)c1N1CCN(c2ccc(C(=O)NC(C(=O)O)C(=O)O)cc2)CC1 -25.8% (inactive)

Give growth inhibition for c1ccc2c(OCCSCCCCCCCCCCSCCOc3cccc4ccccc34)cccc2c1 -2.25% (inactive)
